Field: Permeability (cm/h) 239 Pu. Provide a value for each of the molecules that follow.
assay-details: supported liquid membrane transport into aqueous reextraction solution
Type: physicochemical
assay-conditions: CELGARD 2500 membrane, nitrophenylhexyl ether with 0.001 or 0.0001M calixarene (CMPO 10^-2 M); reextraction 1 mole/l methylene diphosphonic acid
Return type: number; implicit unit cm/h.

So for CCCCC(CC)COc1c2cc(NC(=O)CP(=O)(c3ccccc3)c3ccccc3)cc1Cc1cc(NC(=O)CP(=O)(c3ccccc3)c3ccccc3)cc(c1OCC(CC)CCCC)Cc1cc(NC(=O)CP(=O)(c3ccccc3)c3ccccc3)cc(c1OCC(CC)CCCC)Cc1cc(NC(=O)CP(=O)(c3ccccc3)c3ccccc3)cc(c1OCC(CC)CCCC)C2 (stereo not drawn) , the logged Permeability (cm/h) 239 Pu turned out to be 2

Reported Permeability (cm/h) 239 Pu ( CCCCCCCCCCOc1c2cc(NC(=O)CP(=O)(c3ccccc3)c3ccccc3)cc1Cc1cc(NC(=O)CP(=O)(c3ccccc3)c3ccccc3)cc(c1OCCCCCCCCCC)Cc1cc(NC(=O)CP(=O)(c3ccccc3)c3ccccc3)cc(c1OCCCCCCCCCC)Cc1cc(NC(=O)CP(=O)(c3ccccc3)c3ccccc3)cc(c1OCCCCCCCCCC)C2 ) = 3.6

In plain terms, CCCCCOc1c2cc(NC(=O)CP(=O)(c3ccccc3)c3ccccc3)cc1Cc1cc(NC(=O)CP(=O)(c3ccccc3)c3ccccc3)cc(c1OCCCCC)Cc1cc(NC(=O)CP(=O)(c3ccccc3)c3ccccc3)cc(c1OCCCCC)Cc1cc(NC(=O)CP(=O)(c3ccccc3)c3ccccc3)cc(c1OCCCCC)C2 has a documented Permeability (cm/h) 239 Pu of 3.6

Lookup result for CCCCCCCCCCCCCCOc1c2cc(NC(=O)CP(=O)(c3ccccc3)c3ccccc3)cc1Cc1cc(NC(=O)CP(=O)(c3ccccc3)c3ccccc3)cc(c1OCCCCCCCCCCCCCC)Cc1cc(NC(=O)CP(=O)(c3ccccc3)c3ccccc3)cc(c1OCCCCCCCCCCCCCC)Cc1cc(NC(=O)CP(=O)(c3ccccc3)c3ccccc3)cc(c1OCCCCCCCCCCCCCC)C2 ; measured Permeability (cm/h) 239 Pu: 2.95

The value of Permeability (cm/h) 239 Pu measured for the molecule CCCCCCCCCCCCCCCCCCOc1c2cc(NC(=O)CP(=O)(c3ccccc3)c3ccccc3)cc1Cc1cc(NC(=O)CP(=O)(c3ccccc3)c3ccccc3)cc(c1OC)Cc1cc(NC(=O)CP(=O)(c3ccccc3)c3ccccc3)cc(c1OCCCCCCCCCCCCCCCCCC)Cc1cc(NC(=O)CP(=O)(c3ccccc3)c3ccccc3)cc(c1OC)C2 turned out to be 7

Lab note: measured Permeability (cm/h) 239 Pu of CCCCCCCCCCCCCCCCOc1c2cc(NC(=O)CP(=O)(c3ccccc3)c3ccccc3)cc1Cc1cc(NC(=O)CP(=O)(c3ccccc3)c3ccccc3)cc(c1OCCCCCCCCCCCCCCCC)Cc1cc(NC(=O)CP(=O)(c3ccccc3)c3ccccc3)cc(c1OCCCCCCCCCCCCCCCC)Cc1cc(NC(=O)CP(=O)(c3ccccc3)c3ccccc3)cc(c1OCCCCCCCCCCCCCCCC)C2 was 1.4

----------
Please go through the items and note down their Permeability (cm/h) 239 Pu.
assay-details: supported liquid membrane transport into aqueous reextraction solution
Format: physicochemical
assay-conditions: CELGARD 2500 membrane, nitrophenylhexyl ether with 0.001 or 0.0001M calixarene (CMPO 10^-2 M); reextraction 1 mole/l methylene diphosphonic acid
State just the number; it will be interpreted in cm/h.

Record CCCCCCCCCCOc1c2cc(NC(=O)CP(=O)(c3ccccc3)c3ccccc3)cc1Cc1cc(NC(=O)CP(=O)(c3ccccc3)c3ccccc3)cc(c1OC)Cc1cc(NC(=O)CP(=O)(c3ccccc3)c3ccccc3)cc(c1OCCCCCCCCCC)Cc1cc(NC(=O)CP(=O)(c3ccccc3)c3ccccc3)cc(c1OC)C2 [Compound 6] , field Permeability (cm/h) 239 Pu: 6.4

The compound listed as CCCCCCCCP(=O)(CC(=O)N(CC(C)C)CC(C)C)c1ccccc1 (stereo not shown) [CMPO, reference compound] has a reported Permeability (cm/h) 239 Pu of 3.44

What the record says about CCCCCCCCOc1c2cc(NC(=O)CP(=O)(c3ccccc3)c3ccccc3)cc1Cc1cc(NC(=O)CP(=O)(c3ccccc3)c3ccccc3)cc(c1OC)Cc1cc(NC(=O)CP(=O)(c3ccccc3)c3ccccc3)cc(c1OCCCCCCCC)Cc1cc(NC(=O)CP(=O)(c3ccccc3)c3ccccc3)cc(c1OC)C2 [Compound 9] : Permeability (cm/h) 239 Pu is 4.2

Entry CCCCCCCCCCCCOc1c2cc(NC(=O)CP(=O)(c3ccccc3)c3ccccc3)cc1Cc1cc(NC(=O)CP(=O)(c3ccccc3)c3ccccc3)cc(c1OCCCCCCCCCCCC)Cc1cc(NC(=O)CP(=O)(c3ccccc3)c3ccccc3)cc(c1OCCCCCCCCCCCC)Cc1cc(NC(=O)CP(=O)(c3ccccc3)c3ccccc3)cc(c1OCCCCCCCCCCCC)C2 [Compound 1] — recorded Permeability (cm/h) 239 Pu = 3.4
